# Test system: IGROV1 ovarian
# Assay Notes: NCI-60 one-dose screen, 48 h (100 = growth as untreated, 0 = no growth, -100 = all killed)
# Stated Conditions: 10 µM unless noted
This is part of a sample that, as a whole, favours compounds with a hit. Of some 83,000 tested, about 20% had one in any assay.
Quantity Name: growth (%)
State the answer as a number, implicitly in %.

CCCCCCCCN=C(NCCCCCCCC)SCc1cccc2ccccc12 ... -55.5
COc1ccc(Cl)cc1Nc1nc(C(F)(F)F)ccc1C(=O)NN ... 30.3
O=S1(=O)NCCN1CCNc1nccc(-c2c(-c3cccc(O)c3)nc3sccn23)n1 ... 105
O=C(Nc1ccc(Cl)cc1)c1cc(-c2ccc(Cl)cc2)c2sc(=O)[nH]c2n1 ... 28.1
CN1C2CCC1/C(=C\c1ccc(F)cc1)C(=O)/C2=C/c1ccc(F)cc1 ... 61.9
O=S(=O)(Cc1ccc(Cl)cc1Cl)c1ccc(Cl)cc1 ... 36.1
C[N+](C)(C)CC(=O)N/N=C\c1ccco1 ... 104
CC(C)c1nc2ccccc2n1CC(=O)N/N=C/c1cccc(O)c1 ... 118

Prompt: Reported growth for O=C(CSc1nc2c(n1Nc1ccccc1)-c1ccccc1SC2)Nc1nccs1 : what is it?
Response: 91.4

Prompt: Reported growth for COc1ccc(-c2cc(-c3cn(-c4cccc(Cl)c4)nc3-c3ccc(OC)cc3)[nH]c(=S)n2)cc1 : what is it?
Response: 59.4

Prompt: Reported growth for C=CC(=O)N1CN(C(=O)C=C)CN(C(=O)C=C)C1 : what is it?
Response: 56.8

----------
Entries annotated with measured growth
# Tested on: SK-MEL-2 melanoma
# Assay Notes: NCI-60 one-dose screen, 48 h (100 = growth as untreated, 0 = no growth, -100 = all killed)
# Stated Conditions: 10 µM unless noted
This is part of a sample that, as a whole, favours compounds with a hit. Of some 83,000 tested, about 20% had one in any assay.
State the answer as a number, implicitly in %.

CCCCCCCC/C=C/CCCCCCCC1=NC(C)(C)CN1C(C)C ... -63.9
O=C(Cc1ccc([N+](=O)[O-])cc1)Oc1ccccc1 ... 102

Prompt: Reported growth for O=[N+]([O-])c1ccc(N=Nc2c(NNc3ccc([N+](=O)[O-])cn3)cc(S(=O)(=O)O)c3ccccc23)nc1 : what is it?
Response: 108

Prompt: Reported growth for COc1cc([N+](=O)[O-])cc(OC)c1OC : what is it?
Response: 114

Prompt: Reported growth for Cc1ccc(OC2=C(C#N)C(=N)N3C(=NN2)Sc2c(C)ccc(C)c23)cc1 : what is it?
Response: 121

Prompt: Reported growth for Cc1ccc(NC(=O)c2cc(NCc3cc(O)ccc3O)ccc2O)cc1 : what is it?
Response: 82.8

----------
# System: HCT-116 colon
# Assay Notes: NCI-60 one-dose screen, 48 h
# Stated Conditions: 10 µM unless noted
The panel holds about 83,000 compounds, 20% with a hit somewhere; the sample as a whole holds those more often. The source made the active and inactive calls. Rule for the calls: active = growth percent below 10; inactive = the rest.
Just give me one of these, please: active, inactive

Example cases with answers are listed next.
COc1cnc2c(c1)C(=O)c1c-2n(CCCN2CCNCC2)c(=O)c2cc(Cl)ccc12 ... active
O=[N+]([O-])c1ccc(Sc2nc(Cl)nc(NC3CCCC3)n2)cc1 ... active
COc1ccccc1/C=N\Nc1ccc([N+](=O)[O-])cn1 ... inactive
COc1cc(OC)cc(-c2ccc(-c3ccc(C(=N)N)s3)s2)c1 ... active
O/N=C1\c2ccccc2-c2ccc(Br)cc21 ... inactive
COc1cc(C2CC(c3ccc(Cl)cc3)=NN2C=O)ccc1Oc1ccnc2cc(Cl)ccc12 (stereo not given) ... inactive
CC(C)(C)c1nn(-c2ccccc2)c2c1C(=O)CSC(c1ccccc1Cl)N2 (stereo not given) ... inactive
COc1cc([N+](=O)[O-])cc(OC)c1OC ... inactive

Prompt: Any idea what this test logged for COc1ccc(/C=C/c2nc3ccccc3c(=O)n2-c2ccc(C#Cc3ccc(C(C)(C)C)cc3)cc2C)c(OC)c1 ?
Response: inactive

Prompt: Any idea what this test logged for COc1cc(C2CC(c3ccc(Cl)cc3)=NN2C(C)=O)ccc1Oc1nc2c(c(=O)n(C)c(=O)n2C)n1C (stereo not given) ?
Response: inactive

----------
# Tested on: SK-MEL-5 melanoma
# Assay Notes: NCI-60 one-dose screen, 48 h (100 = growth as untreated, 0 = no growth, -100 = all killed)
# Stated Conditions: 10 µM unless noted
# Method: Growth inhibition of the SK-MEL-5 human tumor cell line is measured as a screen for anti-cancer activity. Cells are grown in 96 well plates and exposed to the test compound for 48 hours. Compounds are tested at a single concentration, which is 10^-5 M for most compounds. The reported endpoint is percent growth (GI% or GIPRCNT), where numbers from 0 - 100% represent growth inhibition, and numbers from -100% - 0 represent cell death. For example, a value of 40 represents 60% growth inhibition. […]
Compounds without any hit were thinned out: in the full panel of roughly 83,000, 20% have a hit.
Values of growth greater than or equal to 90% map to MET; values below map to NOT MET.

Example cases with answers are listed next.
CC1=CCC2C1CC=C(C)C(CC[C@H]1[C@@](C)(O)CCC3OC(C)(C)[C@H](OC(=O)c4ccccc4)CC[C@@]31C)C2(C)C (some centres not stated) ... NOT MET
COc1cc(C2C(C#N)=C(N)Oc3cc4c(cc32)OCO4)cc2c1OCO2 (configuration not stated) ... NOT MET
O=c1c2cc(Br)cc(Br)c2nc(-c2ccc(Cl)cc2)n1/N=C/c1cccc(F)c1 ... NOT MET
CCOC(=O)Nc1ccc2nc(N3CCCCCC3)sc2c1 ... NOT MET
CC1CCN(CCCCCOc2ccc3oc4ccc(Cl)cc4c(=O)c3c2)CC1 ... NOT MET
COc1ccc(CNc2c3ccccc3nc3ccc(OC)cc23)cc1 ... NOT MET

Prompt: Given COc1cc(C2CC(c3ccc(C)cc3)=NN2C=O)ccc1Oc1nc2c(c(=O)n(C)c(=O)n2C)n1C (configuration not stated) , state whether its growth is at least 90%.
Response: NOT MET

Prompt: Given CCN(CC)CCNC(=O)n1cc(-c2ccncc2)c(-c2ccc(Cl)c(OC)c2)n1 , state whether its growth is at least 90%.
Response: MET

Prompt: Given COc1cc(C2CC(c3ccc(C)cc3)=NN2C=O)ccc1Oc1ccnc2cc(Cl)ccc12 (configuration not stated) , state whether its growth is at least 90%.
Response: MET

Prompt: Given CC(C)(C)[Si](C)(C)OC1[C@@H](O[Si](C)(C)C(C)(C)C)[C@@H](CNC(=O)NC(=O)NC(=O)CCl)O[C@H]1n1cnc2c(NC(=O)Nc3ccccc3)ncnc21 (some centres not stated) , state whether its growth is at least 90%.
Response: NOT MET

Prompt: Given COC(=O)CSc1ccc(Cl)cc1 , state whether its growth is at least 90%.
Response: MET

Prompt: Given O=C(Nc1ccc(-n2ccc3c(NC(=O)c4ccccc4)nccc32)cc1)c1ccc(N2CCOCC2)c(C(F)(F)F)c1 , state whether its growth is at least 90%.
Response: NOT MET

Prompt: Given CCN1C(=O)N(CC)C2C1NC(=O)N2/N=C/C=C/c1ccccc1 (configuration not stated) , state whether its growth is at least 90%.
Response: NOT MET

Prompt: Given Cc1nc(N)nc2c1CCC(Nc1ccccc1)S2 (configuration not stated) , state whether its growth is at least 90%.
Response: MET

----------
# Tested on: A549/ATCC NSCLC
# Assay Notes: NCI-60 one-dose screen, 48 h (100 = growth as untreated, 0 = no growth, -100 = all killed)
# Stated Conditions: 10 µM unless noted
About 83,000 compounds went through this panel and 20% of them were active in at least one assay; those are over-represented in the sample as a whole.
Quantity Name: growth (%)
State the answer as a number, implicitly in %.

Worked examples follow.
COc1ccc(CNc2c3ccccc3nc3ccccc23)cc1F ... 22.8
CC(C)CCSc1nc(Nc2ccccc2)c(C#N)c(-c2ccc(F)cc2)n1 ... 25.3
Cc1c(C(=O)CCl)c(=O)n(-c2ccccc2)n1C ... 83.5
Cc1ccc2c(C)c3c(ccc4ccccc43)c[n+]2c1 ... 41.7

Prompt: Reported growth for c1ccc(-c2nnn(-c3ccccc3)n2)cc1 : what is it?
Response: 99.7

Prompt: Reported growth for C/C(=N\Nc1ccc([N+](=O)[O-])cn1)c1ccc(N)cc1 : what is it?
Response: 96.1

Prompt: Reported growth for COc1cccc(N2CCN(c3ncnc4cc[nH]c34)CC2)c1 : what is it?
Response: 60.2

Prompt: Reported growth for O=C(N/N=C/c1ccc([N+](=O)[O-])cc1)c1ccccc1Nc1ccnc(C(F)(F)F)c1 : what is it?
Response: 82

Prompt: Reported growth for COc1cccc(NC(=O)OC(C)C)c1 : what is it?
Response: 94.7

Prompt: Reported growth for Nc1ccc(C2=NNC(=O)Cc3cc4c(cc32)OCCO4)cc1Cl : what is it?
Response: 40.3

Prompt: Reported growth for CCCCc1nc(Cl)c(C2CC(c3ccc(S(N)(=O)=O)cc3)=NN2c2cc(Cl)cc(Cl)c2)[nH]1 (stereo unspecified) : what is it?
Response: 36.5
